biological target: human PPARα (Homo sapiens, UniProt Q07869); construct: host or cells: proprietary non-human mammalian cells; assay: Human PPARα Reporter Assay (luciferase, Indigo Biosciences); type: cell-based; conditions: antagonism; luciferase reporter cells, overnight incubation; read-out: PPARα IC50
Sequence (Q07869 whole entry): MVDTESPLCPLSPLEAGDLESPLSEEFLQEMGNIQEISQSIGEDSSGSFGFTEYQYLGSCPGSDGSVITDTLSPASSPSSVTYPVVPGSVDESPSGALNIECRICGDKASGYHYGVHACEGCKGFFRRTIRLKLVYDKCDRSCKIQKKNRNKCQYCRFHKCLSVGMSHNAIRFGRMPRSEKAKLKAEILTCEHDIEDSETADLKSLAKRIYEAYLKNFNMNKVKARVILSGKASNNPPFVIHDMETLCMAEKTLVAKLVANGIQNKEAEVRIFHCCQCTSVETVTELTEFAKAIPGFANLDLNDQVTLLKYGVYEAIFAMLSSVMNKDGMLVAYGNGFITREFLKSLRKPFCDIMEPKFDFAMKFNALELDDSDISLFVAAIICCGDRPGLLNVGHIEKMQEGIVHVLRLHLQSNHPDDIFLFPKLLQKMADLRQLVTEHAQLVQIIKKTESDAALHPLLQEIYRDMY
pIC50: −log10 of the molar value.
Quick reference: pIC50 of the listed items.
REPORTED PROPERTY: pIC50

| COMPOUND | REPORTED PROPERTY | NUMERIC RESULT |
| --- | --- | --- |
| CC(C)(Oc1ccc(CCCC2=NN(Cc3ccc(C(F)(F)F)cc3)C(=O)C2(C)C)cc1)C(=O)O | pIC50 | 7.21 |
| COc1ccc(-c2ccc(CCCC3=NN(Cc4ccc(C(C)(C)C)cc4)C(=O)C3(C)C)cc2)nc1NS(=O)(=O)c1ccccc1 | pIC50 | 8.00 |
| CC1(C)C(=O)N(c2ccc(C(F)(F)F)cc2)N=C1CCCc1ccc(OC(C)(C(=O)O)c2ccccc2)cc1 (single isomer, unassigned) [53-enantiomer#1] | pIC50 | 6.09 |
| CC(C)(Oc1ccc(CCCC2=NN(c3ccc(OC(F)(F)F)cc3)C(=O)C23CCCC3)cc1)C(=O)NC1CC1 | pIC50 | 7.16 |
| Cc1ccc(N2N=C(CCCc3ccc(OC(C)(C)C(=O)NC4CC4)cc3)C3(CCCC3)C2=O)cc1C | pIC50 | 6.60 |
| CC(C)(Oc1ccc(CCCC2=NN(c3cccc(C(F)(F)F)c3)C(=O)C23CCCC3)cc1)C(=O)O | pIC50 | 7.49 |
| CC(C)(Oc1ccc(CCCC2=NN(Cc3ccc(C4CCCCC4)cc3)C(=O)C2(C)C)cc1)C(=O)O | pIC50 | 6.85 |

###

target: human PPARα (Homo sapiens, UniProt Q07869); construct: host or cells: proprietary non-human mammalian cells; assay: Human PPARα Reporter Assay (luciferase, Indigo Biosciences); format: cell-based; conditions: antagonism; luciferase reporter cells, overnight incubation; read-out: PPARα IC50
REPORTED PROPERTY: IC50 (nM)

| MOLECULE | SCALE UNIT | NUMERIC RESULT |
| --- | --- | --- |
| CC1(C)C(=O)N(c2cccc(C(F)(F)F)c2)N=C1CCCc1ccc(OC(C)(C(=O)O)c2ccccc2)cc1 (single isomer, unassigned) [54-enantiomer#2] | nM | 8.9 |
| CC(C)(Oc1ccc(CCCC2=NN(c3ccc(C(F)(F)F)cn3)C(=O)C2(C)C)cc1)C(=O)O [Example 21] | nM | 35 |
| CC(C)(Oc1ccc(CCCC2=NN(Cc3ccc(C(C)(C)C)cc3)C(=O)C2(C)C)cc1)C(=O)NCC1CCCCC1 [Example 6] | nM | 420 |
| CC(C)(Oc1ccc(CCCC2=NN(c3ccc(C(F)(F)F)cc3)C(=O)C2(C)C)cc1)C(=O)O [Example 19] | nM | 3.8 |
| CC1(C)C(=O)N(c2cccc(C(F)(F)F)c2)N=C1CCCc1ccc(OC2(C(=O)O)CCC2)cc1 [Example 51] | nM | 58 |
| CC(C)(CN)Oc1ccc(CCCC2=NN(c3ccc(C(F)(F)F)cc3)C(=O)C23CCCC3)cc1 [Example 45] | nM | 840 |
| CC(C)(Oc1ccc(CCCC2=NN(c3cccc(C(C)(C)C)c3)C(=O)C23CCCC3)cc1)C(=O)O [Example 40] | nM | 20 |
| CC(C)(Oc1ccc(CCCC2=NN(c3ccc(C(C)(C)C)cc3)C(=O)C2(C)C)cc1)C(=O)O [Example 11] | nM | 8.1 |
| CC(C)(Oc1ccc(CCCC2=NN(Cc3ccc(C(C)(C)C)cc3)C(=O)C2(C)C)cc1)C(=O)NS(=O)(=O)c1ccccc1 [Example 2] | nM | 2.1 |
| CC(C)(Oc1ccc(CCCC2=NN(Cc3ccc(C4=CCCCC4)cc3)C(=O)C2(C)C)cc1)C(=O)O [Example 15] | nM | 130 |
| CC(C)(Oc1ccc(CCCC2=NN(c3ccccc3)C(=O)C2(C)C)cc1)C(=O)O [Example 10] | nM | 410 |
| CC(C)(Oc1ccc(CCCC2=NN(c3ccc(C(F)(F)F)cc3)C(=O)C2(C)C)cc1)C(=O)NS(=O)(=O)c1ccccc1 [Example 22] | nM | 0.9 |
| CC(C)(Oc1ccc(CCCC2=NN(c3ccc(C(F)(F)F)cc3)C(=O)C23CCCC3)cc1)C(=O)NS(=O)(=O)c1ccccc1 [Example 25] | nM | 1 |
| CC1(C)C(=O)N(c2ccc(C(F)(F)F)cc2)N=C1CCCc1ccc(OC(C)(C(=O)O)c2ccccc2)cc1 (single isomer, unassigned) [53-enantiomer#2] | nM | 2.1 |
